Would you mind telling me the reported Emax of each entry?
# measurement_target: FBW7^ARG (RLFBW7) alone (Homo sapiens, UniProt Q969H0, R505L)
# Construct: GST (TEV site and flexible linker) (N, cleaved yes); made in house; host or cells: SF9 insect cells (baculovirus)
# assay_summary: Counterscreen 1 ALPHAscreen with FBW7^ARG alone (CSRUN1/DCSRUN1)
# Assay type: binding
# measurement_parameters: dose-response counterscreen, read-out: RLFBW7 ACT DCSRUN1 Averaged Max % Response
Give a bare numeral; the unit % is implied.

(Q) Returns the measured Emax for the input compound. Input: "COc1ccccc1-c1ccc(=O)n(CC(=O)Nc2ccc(C(=O)N3CCCC3)cc2)n1"
(A) 0.2

(Q) Need Emax of "CC(C)(C)OC(=O)N/N=C\c1cccs1" , thanks.
(A) 1.17

(Q) # input compound: "CN(C)CCN(C)c1nc([C@H](N)Cc2cccc(F)c2)cc2ccc(-c3cn[nH]c3)cc12.O=C(O)C(F)(F)F" ; wanted: its Emax
(A) 0.27

(Q) Look up Emax: CC(NC(=O)c1cnc2ccccn12)c1ccc(F)cc1 (stereo not drawn)
(A) 1.12

(Q) Could you share which Emax value was measured for "CCN1C(=O)c2cccc3c(N4CCCC4)ccc(c23)C1=O" ?
(A) 8.96

(Q) I have this compound here, CCC(C)OC(=O)C1=C(C)NC2=C(C(=O)CC(c3ccccc3)C2)C1c1cccc2ccccc12 (stereo not drawn) , and I need its recorded Emax.
(A) 8.99

(Q) What does the record list as Emax for NC(c1nc2cc(-c3ccncc3)cnc2[nH]1)c1ccc(F)cc1F.O=C(O)C(F)(F)F (stereo not drawn) ?
(A) 0.2

(Q) Requested read-out: Emax. Entry: "COc1ccc(NC(=O)c2cc(S(=O)(=O)N3CCN(c4ccccn4)CC3)ccc2F)cc1"
(A) 1.99

(Q) Query: Emax; subject: "CCOC(=O)C1=CN(Cc2ccc(OC)cc2)C=C(C(=O)OCC)C1c1ccccc1OCc1ccccc1"
(A) 3.64

(Q) GET /values?readout=Emax&item= "CC(C)[C@@H](CO)Nc1ccc2ncc(-c3cccc(Cl)c3)n2n1"
(A) 0.49

(Q) May I ask what Emax has been recorded for "CC(=O)Nc1ccc(NC(=O)Cn2cnc3c(cnn3C(C)(C)C)c2=O)cc1" ?
(A) 0.23

(Q) Any idea what Emax was measured for "Cc1c(NC(=O)/C(=C\c2ccccc2)NC(=O)c2ccccc2)c(=O)n(-c2ccccc2)n1C" ?
(A) 0.11

(Q) What does the record list as Emax for "COc1ccc(OC)c(/C=C2/N=C(c3cccc([N+](=O)[O-])c3)OC2=O)c1" ?
(A) -0.422

(Q) # get_value(readout='Emax', item= "COc1cccc(/C=N/c2cnn(C)c2C(N)=O)c1O" )
(A) 0.25

(Q) I am curious: what Emax value has been reported for CCS(=O)(=O)NCC(c1cccs1)S(=O)(=O)c1ccc(C)cc1 (stereo not drawn) ?
(A) 0.24

* * *

I'd be grateful if you could share measured activation at 26.1 µM for these entries.
# measurement_target: FBW7^ARG+pCycE (Homo sapiens, UniProt Q969H0, R505L)
# Construct: GST (TEV site and flexible linker) (N, cleaved yes); made in house; host or cells: SF9 insect cells (baculovirus)
# Sequence (Q969H0 64-707 R505L): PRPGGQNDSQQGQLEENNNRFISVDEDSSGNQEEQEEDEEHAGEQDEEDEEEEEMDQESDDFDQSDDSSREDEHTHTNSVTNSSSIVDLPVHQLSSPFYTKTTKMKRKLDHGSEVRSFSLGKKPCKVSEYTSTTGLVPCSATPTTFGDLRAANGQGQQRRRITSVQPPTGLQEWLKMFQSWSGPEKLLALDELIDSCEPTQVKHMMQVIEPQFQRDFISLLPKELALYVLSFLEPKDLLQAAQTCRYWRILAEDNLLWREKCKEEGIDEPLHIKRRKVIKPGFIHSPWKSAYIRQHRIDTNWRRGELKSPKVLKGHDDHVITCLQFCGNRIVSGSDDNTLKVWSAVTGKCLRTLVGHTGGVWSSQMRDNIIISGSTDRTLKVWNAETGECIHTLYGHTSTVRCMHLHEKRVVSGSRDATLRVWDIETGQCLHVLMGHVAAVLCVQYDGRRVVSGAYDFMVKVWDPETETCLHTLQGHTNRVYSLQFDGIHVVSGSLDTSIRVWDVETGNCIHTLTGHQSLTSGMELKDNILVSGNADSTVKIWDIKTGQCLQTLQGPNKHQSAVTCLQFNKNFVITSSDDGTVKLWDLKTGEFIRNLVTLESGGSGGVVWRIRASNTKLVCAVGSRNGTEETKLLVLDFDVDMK
# Sequence (P63208 2-163 partner): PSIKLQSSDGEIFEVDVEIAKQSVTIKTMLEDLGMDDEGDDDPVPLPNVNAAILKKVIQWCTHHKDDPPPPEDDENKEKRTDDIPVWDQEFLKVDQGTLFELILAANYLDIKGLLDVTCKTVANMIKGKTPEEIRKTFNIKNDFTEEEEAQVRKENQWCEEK
# assay_summary: FBW7^ARG-cyclin E agonist ALPHAscreen (primary PRUN, confirmation CRUN1, dose-response DRUN)
# Assay type: binding
# measurement_parameters: primary screen, 1536-well, 26.1 μM, FBW7^ARG + pCycE degron peptide; high control wt-FBW7+pCycE; read-out: FBW7 ACT PRUN % Response
Give your result in % as a bare value.

(Q) Field request: activation at 26.1 µM | item: CCN1C(=O)c2cccc3c(N4CCCC4)ccc(c23)C1=O [SR-01000221568-1]
(A) 2.07

(Q) Fill blank: measured activation at 26.1 µM of the compound Fc1ccccc1CSc1nnnn1-c1ccccc1F [SR-01000432842-1] is ____.
(A) 2.34

(Q) Please report the recorded activation at 26.1 µM for Cc1ccc(-c2cccc3cnc(Nc4ccc(-n5cnc(-c6ccccn6)n5)cc4)nc23)cn1.O=C(O)C(F)(F)F [SR-00000008492-1] .
(A) 5.73

(Q) Which activation at 26.1 µM value is on record for CC(NC(=O)c1cnc2ccccn12)c1ccc(F)cc1 (stereo not drawn) [SR-01000378746-1] ?
(A) 2.82

(Q) Any idea what activation at 26.1 µM was measured for Cc1ccnc(N2CCC(C(=O)Nc3ccccc3Br)CC2)n1 [SR-01000330228-1] ?
(A) 2.08

(Q) What value of activation at 26.1 µM has been reported for the following compound? CCN(CC)c1ccc2cc(-c3ccccn3)c(=O)oc2c1 [SR-01000033354-1]
(A) 2.67

(Q) Query (compound): CN(C)CCN(C)c1nc([C@H](N)Cc2cccc(F)c2)cc2ccc(-c3cn[nH]c3)cc12.O=C(O)C(F)(F)F [SR-00000006284-1] ; field requested: activation at 26.1 µM
(A) 2.73

(Q) Would you kindly share the measured activation at 26.1 µM for O=C([C@H]1CC[C@H](Nc2nccc(-c3ccc4nc(C5CC5)nc(O)c4c3)n2)CC1)N1CCCC1 [SR-00000008677-1] ?
(A) 2.63

(Q) Fill in: activation at 26.1 µM of CCSc1nnc(C2CCN(CC(=O)Nc3cccc4ccccc34)CC2)n1C [SR-01000349710-1] is ___
(A) 2.77

(Q) // query activation at 26.1 µM value for entry COc1ccc(N2C(=O)CC(SCCN)C2=O)cc1 (stereo not drawn) [SR-01000428800-1]
(A) 2.51

(Q) Give the measured activation at 26.1 µM of CC1=C(C(=O)OC2CCCCC2)C(c2ccc(F)cc2)C2=C(CC(c3ccccc3)CC2=O)N1 (stereo not drawn) [SR-01000420805-1] .
(A) 1.92

(Q) Which measured activation at 26.1 µM value corresponds to CCN(CC)c1ccc2cc(-c3nc(C)cs3)c(=O)oc2c1 [SR-01000312020-1] ?
(A) 3.44

(Q) Consider the compound shown here: CSc1ccccc1C(=O)Nc1nc2nc(C)cc(C)c2s1 [SR-01000917298-1] What is its recorded activation at 26.1 µM?
(A) 8.85

(Q) I have this compound here, CC1=C(C(=O)OCc2ccccc2)C(c2cn(-c3ccccc3)nc2-c2ccc(F)cc2)C(C(=O)OCc2ccccc2)=C(C)N1 [SR-01000425637-1] , and I need its recorded activation at 26.1 µM.
(A) 1.93

(Q) For the compound COc1ccc(C2CC(=O)C3=C(C2)NC(C)=C(C(=O)OC(C)C)C3c2ccccc2OC(C)C)cc1 (stereo not drawn) [SR-01000422384-1] , what activation at 26.1 µM is on record?
(A) 2.42

(Q) Would you kindly share the measured activation at 26.1 µM for COc1ccccc1N1C(=O)c2ccc(C(=O)Nc3cc([N+](=O)[O-])ccc3O)cc2C1=O [SR-01000236956-1] ?
(A) 2.14

(Q) # lookup: activation at 26.1 µM of CCCCCCCC(=O)Nc1ccc(C(=O)Nc2ccc(O)c(C(=O)O)c2)cc1 [SR-01000507444-1]
(A) 4.07

(Q) Any idea what activation at 26.1 µM was measured for COc1cccc(/C=N/c2ccc3[nH]ncc3c2)c1O [SR-01000359514-1] ?
(A) 6.3

(Q) For O=C(Nc1ccc2oc(-c3ccc4ccccc4c3)nc2c1)c1cccc(Cl)c1Cl [SR-01000415504-1] , what is its reported activation at 26.1 µM?
(A) 1.88

(Q) Name the recorded activation at 26.1 µM for CCSCCOC(=O)C1=C(C)NC2=C(C(=O)CCC2)C1c1ccc(Br)cc1 (stereo not drawn) [SR-01000422432-1] .
(A) 2.03

(Q) Looking for the measured activation at 26.1 µM of CC(C)(C)OC(=O)N/N=C\c1cccs1 [SR-01000110457-1] , can you help?
(A) 5.59

(Q) // query activation at 26.1 µM value for entry CN(C)CC[S+]([O-])c1cc(-c2cn[nH]c2)ccc1NC(=O)[C@@H]1Cc2cc(F)ccc2CN1.O=C(O)C(F)(F)F (stereo partly drawn) [SR-00000005398-1]
(A) 1.91

(Q) Which activation at 26.1 µM is listed for COc1ccccc1C1C(C(=O)OC2CCCC2)=C(C)NC2=C1C(=O)CC(c1ccccc1)C2 (stereo not drawn) [SR-01000422836-1] ?
(A) 2.6

(Q) Entry CCOC(=O)C1=CN(Cc2ccc(OC)cc2)C=C(C(=O)OCC)C1c1ccccc1OCc1ccccc1 [SR-01000587933-1] has what activation at 26.1 µM?
(A) 2.16

* * *

Please respond with reported pEC50 for every item in the list.
# measurement_target: FBW7^ARG+pCycE (Homo sapiens, UniProt Q969H0, R505L)
# Construct: GST (TEV site and flexible linker) (N, cleaved yes); made in house; host or cells: SF9 insect cells (baculovirus)
# assay_summary: FBW7^ARG-cyclin E agonist ALPHAscreen (primary PRUN, confirmation CRUN1, dose-response DRUN)
# Type: binding
# measurement_parameters: DRUN dose-response, raw curve fit; read-out: FBW7 ACT EC50 Curve Fit Raw, Molar
pEC50 (log units): -log10 of the concentration in mol/L.

(Q) Entry COc1ccc(SCC(=O)NNC(=S)Nc2ccccc2)cc1 [SR-01000526835-1] has what pEC50?
(A) 5.14

(Q) Which pEC50 is listed for CC1=C(C(=O)OC(C)C)C(c2ccncc2)C2=C(CC(c3ccccc3)CC2=O)N1 (stereo not drawn) [SR-01000217822-2] ?
(A) 4.64

(Q) What value of measured pEC50 is listed for CN(C)CCN(C)c1nc([C@H](N)Cc2cccc(F)c2)cc2ccc(-c3cn[nH]c3)cc12.O=C(O)C(F)(F)F [SR-00000006284-1] ?
(A) 5.14
